# target-system: Aβ42 (Homo sapiens, UniProt P05067)
# Sequence (P05067 672-713): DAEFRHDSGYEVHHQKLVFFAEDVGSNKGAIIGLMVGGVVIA
# experiment-notes: Th-T (thioflavin-T) assay of Aβ42 aggregation
# Assay type: biochemical
# stated-conditions: column suffix _20; reading M87
observation-type: Fig. 7a Th-T reading, mean of three wells

> print(dat)
                                   compound  reported.result
1  C=C1CC[C@@H]2[C@](C)(CC[C@H]3O[C@H](C=C(C)C)C[C@@]23C)[C@@H]1Cc1c(OC)oc(CO)c(C)c1=O [Compound 20]           3.2956
2  C=C1CCC2C(C)(CCC=C(C)C)C(O)CCC2(C)C1Cc1c(OC)oc(CO)c(C)c1=O (centres unmarked) [Compound 12]            2.078
3  C=C1CCC2C(C)(CCC=C(C)C)C(O)CCC2(C)C1Cc1c(OC)oc(C)c(C(=O)OC)c1=O (centres unmarked) [Compound 14]            1.842
4  C=C1CC[C@@H]2[C@](C)(CC[C@H]3O[C@H](C=C(C)C)C[C@@]23C)[C@@H]1Cc1c(OC)oc(CO)c(C(=O)OC)c1=O [Compound 21]           0.6445
5  C=C1CCC2C(C)(CCC=C(C)C)C(O)CCC2(C)C1Cc1c(OC)oc(CO)c(C(=O)OC)c1=O (centres unmarked) [Compound 13]            1.045

###

# Test system: l(2)mbn cells
# experiment-notes: cytotoxicity in Drosophila l(2)mbn cells
# Assay type: cell-based
# stated-conditions: cytotoxicity, average±SEM
observation-type: IC50

> print(dat)
                                   compound  target.system  reported.result
1  C=C1CCC2C(C)(CCC=C(C)C)C(O)CCC2(C)C1Cc1c(OC)oc(C)c(C)c1=O (stereo not shown) [Compound 15, viridoxin A hydrolysate]  l(2)mbn cells          5.23 µM

###

# target-system: Aβ42 (Homo sapiens, UniProt P05067)
# experiment-notes: Th-T (thioflavin-T) assay of Aβ42 aggregation
# Type: biochemical
# stated-conditions: Aβ42 aggregation time course, reading M124
observation-type: Th-T fluorescence, mean of three wells

> print(dat)
                                    molecule                        observation.type  reported.result
 1  C=C1CCC2C(C)(CCC=C(C)C)C(O)CCC2(C)C1Cc1c(OC)oc(C)c(C)c1=O (stereo not drawn) [Compound 11]  Th-T fluorescence, mean of three wells            3.409
 2  C=C1CCC2C(C)(CCC=C(C)C)C(O)CCC2(C)C1Cc1c(O)c(C)c(C)oc1=O (stereo not drawn) [Compound 9, higginsianin B]  Th-T fluorescence, mean of three wells            2.764
 3  C=C1CCC2C(C)(CCC=C(C)C)C(O)CCC2(C)C1Cc1c(OC)oc(C)c(C(=O)OC)c1=O (stereo not drawn)  Th-T fluorescence, mean of three wells           1.6777
 4  C=C1CCC2C(C)(CCC=C(C)C)C(O)CCC2(C)C1Cc1c(OC)oc(CO)c(C(=O)OC)c1=O (stereo not drawn)  Th-T fluorescence, mean of three wells            1.036
 5  C=C1CC[C@H]2[C@]3(C)C[C@H](C=C(C)C)O[C@H]3CC[C@]2(C)[C@@H]1Cc1c(OC)oc(CO)c(C)c1=O  Th-T fluorescence, mean of three wells            3.775
 6  C=C1CC[C@H]2[C@]3(C)C[C@@H](C=C(C)C)O[C@H]3CC[C@]2(C)[C@@H]1Cc1c(O)c(C)c(C)oc1=O  Th-T fluorescence, mean of three wells            2.652
 7  C=C1CCC2C(C)(CCC=C(C)C)C(O)CCC2(C)C1Cc1c(OC)oc(CO)c(C)c1=O (stereo not drawn)  Th-T fluorescence, mean of three wells           2.0354
 8  C=C1CCC2C(C)(CC(=O)C=C(C)C)C(O)CCC2(C)C1Cc1c(O)c(C)c(C)oc1=O (stereo not drawn)  Th-T fluorescence, mean of three wells            3.451
 9  C=C1CC[C@H]2[C@]3(C)C[C@H](C=C(C)C)O[C@H]3CC[C@]2(C)[C@@H]1Cc1c(OC)oc(C)c(C)c1=O  Th-T fluorescence, mean of three wells            3.899
10  C=C1CCC2C(C)(CC(=O)C=C(C)C)C(O)CCC2(C)C1Cc1c(OC)oc(CO)c(C)c1=O (stereo not drawn)  Th-T fluorescence, mean of three wells           3.5846
11  C=C1CCC2C3(C)CC(C=C(C)C)OC3CCC2(C)C1Cc1c(OC)oc(C)c(C)c1=O (stereo not drawn)  Th-T fluorescence, mean of three wells            3.827
12  C=C1CC[C@@H]2[C@](C)(CC[C@H]3O[C@H](C=C(C)C)C[C@@]23C)[C@@H]1Cc1c(OC)oc(CO)c(C(=O)OC)c1=O  Th-T fluorescence, mean of three wells            1.043
13  C=C1CCC2C(C)(CCC=C(C)C)C(O)CCC2(C)C1Cc1c(OC)oc(C)c(C)c1=O (stereo not drawn) [Compound 15, viridoxin A hydrolysate]  Th-T fluorescence, mean of three wells            3.339
14  C=C1CCC2C(C)(CC(=O)C=C(C)C)C(O)CCC2(C)C1Cc1c(OC)oc(C)c(C)c1=O (stereo not drawn)  Th-T fluorescence, mean of three wells            3.572
15  CC(C)=CCC/C(C)=C/CC/C(C)=C/CC/C(C)=C/Cc1c(O)c(C)c(C)oc1=O  Th-T fluorescence, mean of three wells            2.945
16  C=C1CCC2C(C)(CCC=C(C)C)C(=O)CCC2(C)C1Cc1c(O)c(C)c(C)oc1=O (stereo not drawn)  Th-T fluorescence, mean of three wells            2.207
17  C=C1CC[C@H]2[C@]3(C)C[C@@H](C=C(C)C)O[C@H]3CC[C@]2(C)[C@@H]1Cc1c(OC)oc(CO)c(C)c1=O  Th-T fluorescence, mean of three wells            3.645
18  C=C1CC[C@H]2[C@]3(C)C[C@H](C=C(C)C)O[C@H]3CC[C@]2(C)[C@@H]1Cc1c(O)c(C)c(C)oc1=O  Th-T fluorescence, mean of three wells            3.061
19  C=C1CC[C@@H]2[C@](C)(CC[C@H]3O[C@H](C=C(C)C)C[C@@]23C)[C@@H]1Cc1c(OC)oc(CO)c(C)c1=O  Th-T fluorescence, mean of three wells            4.194
20  C=C1CC[C@@H]2[C@](C)(CC[C@H]3O[C@H](C=C(C)C)C[C@@]23C)[C@@H]1Cc1c(O)c(C)c(C)oc1=O  Th-T fluorescence, mean of three wells             3.01
21  C=C1CCC2C(C)(CCC=C(C)C)C(O)CCC2(C)C1Cc1c(O)c(C)c(C)oc1=O (stereo not drawn) [Compound 4]  Th-T fluorescence, mean of three wells            2.734

###

This listing pairs compounds with measured Th-T fluorescence, mean of three wells (Fig. 7a).
# target-system: Aβ42 (Homo sapiens)
# experiment-notes: Th-T (thioflavin-T) assay of Aβ42 aggregation
# Format: biochemical
# stated-conditions: column suffix _50; measurement M22
observation-type: Th-T fluorescence, mean of three wells (Fig. 7a)

> print(dat)
                                   compound  reported.result
1  C=C1CCC2C(C)(CCC=C(C)C)C(O)CCC2(C)C1Cc1c(OC)oc(C)c(C(=O)OC)c1=O (centres unmarked)           0.6351
2  C=C1CC[C@@H]2[C@](C)(CC[C@H]3O[C@H](C=C(C)C)C[C@@]23C)[C@@H]1Cc1c(OC)oc(CO)c(C(=O)OC)c1=O            0.212
3  C=C1CCC2C(C)(CCC=C(C)C)C(O)CCC2(C)C1Cc1c(OC)oc(CO)c(C(=O)OC)c1=O (centres unmarked)           0.2749
4  C=C1CC[C@@H]2[C@](C)(CC[C@H]3O[C@H](C=C(C)C)C[C@@]23C)[C@@H]1Cc1c(OC)oc(CO)c(C)c1=O            2.216
5  C=C1CCC2C(C)(CCC=C(C)C)C(O)CCC2(C)C1Cc1c(OC)oc(CO)c(C)c1=O (centres unmarked)            1.694

###

# Tested on: NCI-H522
# experiment-notes: cells
# Design: species or system JFCR39 human cancer cell lines; JFCR39 panel growth inhibition, sulforhodamine B total protein after 48 h
# stated-conditions: Homo sapiens, NCI-H522, 48 h
This section presents molecules with their documented GI50 values.
observation-type: GI50 (µM)

> print(dat)
                                   molecule  reported.result
1  C=C1CCC2C(C)(CCC=C(C)C)C(O)CCC2(C)C1Cc1c(OC)oc(C)c(C(=O)OC)c1=O (stereo not shown)             1.54
2  C=C1CCC2C(C)(CCC=C(C)C)C(O)CCC2(C)C1Cc1c(OC)oc(CO)c(C(=O)OC)c1=O (stereo not shown)             6.85
3  C=C1CCC2C(C)(CCC=C(C)C)C(O)CCC2(C)C1Cc1c(OC)oc(C)c(C)c1=O (stereo not shown)             1.95
4  C=C1CCC2C(C)(CC(=O)C=C(C)C)C(O)CCC2(C)C1Cc1c(OC)oc(CO)c(C)c1=O (stereo not shown)             12.4
